Value source: ChEMBL document CHEMBL3885861

Species on record: Rattus norvegicus
Test Name: Open TG-GATES - Regimen: Single
Assay type: toxicity, organism-based, Sprague-Dawley
Set-up: regimen Single, gender Male, age 6 weeks
Experimental Conditions: in vivo, po, 0 mg/kg, 6 h, tissue Plasma, route gavage, dose level Control
Property Label: Cl (meq/L)

CN1C(=O)OC(C)(C)C1=O	108.2
C[C@]12CCC(=O)C=C1CC[C@@H]1[C@@H]2CC[C@@]2(C)[C@H]1CC[C@]2(C)O	108
CC(=N)S [THIOACETAMIDE]	103.8
CC(C)C(=O)Nc1ccc([N+](=O)[O-])c(C(F)(F)F)c1 [FLUTAMIDE]	102.6

----------
Species on record: Rattus norvegicus
Test Name: Open TG-GATES - Regimen: Daily Repeat
Format: toxicity, organism-based, Sprague-Dawley
Design: regimen Daily Repeat, gender Male, age 6 weeks
Experimental Conditions: in vivo, po, 0 mg/kg, […], tissue Blood, route gavage, dose level Control, time 14 day
Measured PT accompanies every entry in the list below.
Property Label: PT (s)

CC(=O)Oc1cc(C(C)C)c(OCCN(C)C)cc1C	16.1
C[C@](N)(Cc1ccc(O)c(O)c1)C(=O)O	14.1
CC(=N)S [THIOACETAMIDE]	11.8
CCSCC[C@H](N)C(=O)O	11.9
Oc1ncnc2[nH]ncc12	11.9
Nc1nc(N)c2nc(-c3ccccc3)c(N)nc2n1	13.2
CC(C)C(=O)Nc1ccc([N+](=O)[O-])c(C(F)(F)F)c1 [FLUTAMIDE]	12.2
CC(C)(S)[C@@H](N)C(=O)O	14.2
CCc1oc2ccccc2c1C(=O)c1cc(I)c(O)c(I)c1	11.5
C#C[C@]1(O)CC[C@H]2[C@@H]3CCc4cc(O)ccc4[C@H]3CC[C@@]21C	11.8
CN1C(=O)OC(C)(C)C1=O	13.4
C[C@]12CCC(=O)C=C1CC[C@@H]1[C@@H]2CC[C@@]2(C)[C@H]1CC[C@]2(C)O	12.8
O=C(O)c1cccnc1	15.9
O=C(N[C@H](CO)[C@H](O)c1ccc([N+](=O)[O-])cc1)C(Cl)Cl	14.8
CCN1CCCC1CNC(=O)c1cc(S(N)(=O)=O)ccc1OC (stereo not given) [SULPIRIDE]	13

----------
# maps each entry to its RBC
Species: Rattus norvegicus
Test Name: Open TG-GATES - Regimen: Daily Repeat
Format: toxicity, organism-based, Sprague-Dawley
Set-up: regimen Daily Repeat, gender Male, age 6 weeks
Experimental Conditions: in vivo, po, 1000 mg/kg, 72 h, tissue Blood, route gavage, dose level High, time 3 day
Property Label: RBC (x10_4/ul)

CCN1CCCC1CNC(=O)c1cc(S(N)(=O)=O)ccc1OC (centres undefined) [SULPIRIDE]	682.6
O=C(N[C@H](CO)[C@H](O)c1ccc([N+](=O)[O-])cc1)C(Cl)Cl	630.6
CC(C)(S)[C@@H](N)C(=O)O	657.4
O=C(O)c1cccnc1	645

----------
Ret listing for selected compounds.
Species: Rattus norvegicus
Test Name: Open TG-GATES - Regimen: Single
Type: toxicity, organism-based, Sprague-Dawley
Parameters: regimen Single, gender Male, age 6 weeks
Experimental Conditions: in vivo, po, 0 mg/kg, 24 h, tissue Blood, route gavage, dose level Control
Property Label: Ret

CCC(C)(C)C(=O)O[C@H]1C[C@@H](C)C=C2C=C[C@H](C)[C@H](CC[C@@H]3C[C@@H](O)CC(=O)O3)[C@H]21	9.5%
C#C[C@]1(O)CC[C@H]2[C@@H]3CCc4cc(O)ccc4[C@H]3CC[C@@]21C	8.5%
Nc1nc(N)c2nc(-c3ccccc3)c(N)nc2n1	6.9%
CCN1CCCC1CNC(=O)c1cc(S(N)(=O)=O)ccc1OC (stereo unspecified) [SULPIRIDE]	7.4%
C[C@](N)(Cc1ccc(O)c(O)c1)C(=O)O	9.5%
CC(=N)S [THIOACETAMIDE]	8.1%
CC(=O)Oc1cc(C(C)C)c(OCCN(C)C)cc1C	7.8%
Oc1ncnc2[nH]ncc12	8.1%
CN1C(=O)OC(C)(C)C1=O	7.3%
CCSCC[C@H](N)C(=O)O	6.6%
CCc1oc2ccccc2c1C(=O)c1cc(I)c(O)c(I)c1	8.8%
C[C@]12CCC(=O)C=C1CC[C@@H]1[C@@H]2CC[C@@]2(C)[C@H]1CC[C@]2(C)O	8.1%
CC(C)(S)[C@@H](N)C(=O)O	8.2%
O=C(O)c1cccnc1	7.5%
CC(C)C(=O)Nc1ccc([N+](=O)[O-])c(C(F)(F)F)c1 [FLUTAMIDE]	7.7%
O=C(N[C@H](CO)[C@H](O)c1ccc([N+](=O)[O-])cc1)C(Cl)Cl	7.6%
